Tested on: HOP-92 NSCLC
Assay: NCI-60 one-dose screen, 48 h (100 = growth as untreated, 0 = no growth, -100 = all killed)
Conditions: 10 µM unless noted
Procedure: Growth inhibition of the HOP-92 human Non-Small Cell Lung tumor cell line is measured as a screen for anti-cancer activity. Cells are grown in 96 well plates and exposed to the test compound for 48 hours. Compounds are tested at a single concentration, which is 10^-5 M for most compounds. The reported endpoint is percent growth (GI% or GIPRCNT), where numbers from 0 - 100% represent growth inhibition, and numbers from -100% - 0 represent cell death. […]
About 83,000 compounds went through this panel and 20% of them were active in at least one assay; those are over-represented in the sample as a whole.
Below: a set of entries, each annotated with reported growth.

- COMPOUND_STRUCTURE: "CN(C)CCCOc1c2ccc(Cl)cc2nc2c1oc1ccccc12"
  MEASURED_TARGET: "HOP-92 NSCLC"
  growth (%): -4.3
- COMPOUND_STRUCTURE: "COc1ccc(-n2c(SCC(=O)Nc3ccc(-c4nc5ccccc5[nH]4)cc3)nc3ccccc3c2=O)cc1"
  MEASURED_TARGET: "HOP-92 NSCLC"
  growth (%): -33.3
- COMPOUND_STRUCTURE: "COc1cc(/C=C/C(=O)c2cc(OC)c(OC)c(OC)c2)ccc1Oc1nc(NCCO)nc(N2CCOCC2)n1"
  MEASURED_TARGET: "HOP-92 NSCLC"
  growth (%): 13.5

* * *

tested on: MDA-MB-231 breast; experiment: NCI-60 one-dose screen, 48 h; settings: 10 µM unless noted
Compounds without any hit were thinned out: in the full panel of roughly 83,000, 20% have a hit. Calls of active or inactive are those of the source. How the source made its calls: active means growth percent below 10; inactive means the rest.
Outcome codes: active, inactive

- COMPOUND: "OC1CCN(CCCOc2c3ccccc3nc3c2oc2ccccc23)CC1"
  CAT: "active"
- COMPOUND: "COc1ccc([C@@H]2c3[nH]c4ccccc4c3CC3C(=O)N(C4CCN(Cc5c(F)cccc5F)CC4)CC(=O)N32)c(OC)c1 (stereo not given in full)"
  CAT: "inactive"
- COMPOUND: "C#Cc1nc(C2=C(C)C(=N\\O)/C(=N/O)C2)cs1"
  CAT: "inactive"
- COMPOUND: "C/C(=N/NC(N)=S)c1ccc(Nc2nc(SCC(C)C)nc(-c3ccc(F)cc3)c2C#N)cc1"
  CAT: "inactive"
- COMPOUND: "COc1ccc(/C=N/Nc2ccnc3cc(Cl)ccc23)cc1Cl"
  CAT: "active"
- COMPOUND: "Cc1nc(-c2cc3ccccc3oc2=O)ccc1C(=O)/C=C/c1ccc(N2CCOCC2)cc1"
  CAT: "inactive"
- COMPOUND: "C#C[C@]1(O)CC[C@H]2[C@@H]3CC=C4c5sc(-c6ccc(F)cn6)nc5CC[C@]4(C)[C@H]3CC[C@@]21C"
  CAT: "inactive"
- COMPOUND: "CCOc1ccc([C@H]2C(C(=O)c3ccc(Cl)cc3)C3(N[C@@H]2c2ccccc2)C(=O)Nc2ccc(Br)cc23)cc1 (stereo not given in full)"
  CAT: "inactive"
- COMPOUND: "COc1ccc(/C=C2\\SC(=Nc3cc(C)on3)NC2=O)cc1"
  CAT: "inactive"
- COMPOUND: "N#Cc1nc(-c2ccccc2)oc1N1CC[C@@H](CO)C1"
  CAT: "inactive"
- COMPOUND: "C=CCSc1ccc2c(c1)C(N1CCNCC1)=Nc1ccccc1O2"
  CAT: "inactive"
- COMPOUND: "CN(C)CCCOc1c2ccccc2nc2c1oc1ccc(Cl)cc12"
  CAT: "active"
- COMPOUND: "O=c1[nH]c2ccccc2cc1CSc1ccccc1Nc1nccc(-c2ccc(C(F)(F)F)cc2)n1"
  CAT: "inactive"
- COMPOUND: "O=C(N/N=C/c1ccc(Cl)s1)c1[nH]c2ccc(Br)cc2c1-c1ccccc1"
  CAT: "active"
- COMPOUND: "CN1CCN(Cc2ccc(NC(=O)c3cncc(C#Cc4cnc5ccc(N6CCSCC6)nn45)c3)cc2C(F)(F)F)CC1"
  CAT: "active"
- COMPOUND: "O=C(Oc1ccc2ccc(=O)oc2c1)c1ccc(Cl)cc1"
  CAT: "inactive"
- COMPOUND: "COC(=O)C(C)NS(=O)(=O)/N=C1\\NC(=O)NC1=C(Cl)Cl (stereo not given)"
  CAT: "inactive"
- COMPOUND: "O=C1NC(=C(Cl)Cl)/C(=N/S(=O)(=O)N2CCCCC2CC2(C(F)(F)F)N=N2)N1 (stereo not given)"
  CAT: "active"
- COMPOUND: "Fc1ccc(-c2cc3nc(C(Cl)Cl)nc(-c4ccc(Cl)cc4)n3n2)cc1"
  CAT: "active"
- COMPOUND: "COc1cccc(-c2nn(-c3ccccc3)cc2-c2ccnc(N3CCN(C(=O)c4ccccc4)CC3)c2)c1"
  CAT: "inactive"
- COMPOUND: "Cc1cc(C(=O)Nc2sc3c(c2C(N)=O)CCC(=O)C3)ccc1OCCN1CCCCC1"
  CAT: "inactive"
- COMPOUND: "Cc1cccc(/C=C/c2nn3c(-c4ccco4)nnc3s2)c1"
  CAT: "inactive"
- COMPOUND: "Cc1c(Nc2nnc(SCC(=O)Nc3sc4c(c3C#N)CCCC4)s2)c(=O)n(-c2ccccc2)n1C"
  CAT: "inactive"
- COMPOUND: "C#Cc1nc(C2=C(C)C(O)/C(=N/O)C2)cs1 (stereo not given)"
  CAT: "active"
- COMPOUND: "NC(=O)c1c(NC(=O)c2ccc(C3CCCCC3)cc2)sc2c1CCC(=O)C2"
  CAT: "inactive"
- COMPOUND: "Cc1nc(-c2cc3ccccc3oc2=O)ccc1C(=O)/C=C/c1ccccn1"
  CAT: "inactive"
- COMPOUND: "C#Cc1nc(C2=C(C)C(OC(C)=O)/C(=N/OC(C)=O)C2)cs1 (stereo not given)"
  CAT: "active"
- COMPOUND: "CCC/C=C/C=C/C(=O)N[C@@H](Cc1cc(F)cc(F)c1)C(=O)N[C@@H]1C(=O)N2CCC[C@H]2C(=O)N2CCCC[C@H]2C(=O)N[C@@H](C)C(=O)N2C[C@H](C)C[C@H]2C(=O)O[C@H]1C"
  CAT: "inactive"
- COMPOUND: "O=C(CSc1nc2sc3c(c2c(=O)n1-c1ccc(Cl)cc1)CCCC3)N/N=C/c1ccc(F)cc1"
  CAT: "inactive"
- COMPOUND: "O=C(CCCN1C(=O)/C(=C/c2ccccc2F)SC1=S)N1CCOCC1"
  CAT: "inactive"

These entries and their values trace back to PubChem BioAssay (NCI).
